# Method: Kinetics in human plasma (enzymatic hydrolysis)
# Format: in vitro ADME
# Condition set: human, human plasma (80%) diluted with phosphate buffer, pH 7.4, Human plasma, 37 °C; read-out: Enzymatic hydrolysis t ½
Parameter half-life at 40 µg/mL: see the listing below.
Property label: half-life at 40 µg/mL

1. Cc1ccc(S(=O)(=O)Nc2ccc(/C=C/c3ccccc3)cc2)cc1; > 49 h
2. CCS(=O)(=O)Nc1ccc(/C=C/c2ccccc2)cc1; > 49 h

###

# reported logP; entries follow
# Method: LogP determination (n-octanol/phosphate buffer pH 7.4)
# Assay type: physicochemical
# Condition set: n-octanol/aqueous phosphate buffer, pH 7.4, n-octanol / phosphate buffer pH 7.4; mean of three experiments (SD)
Property label: logP

1) Cc1ccc(S(=O)(=O)Nc2ccc(/C=C/c3ccccc3)cc2)cc1; < 3
2) CCS(=O)(=O)Nc1ccc(/C=C/c2ccccc2)cc1; < 3
